Recorded 8OG:A repair function score values for a group of variants are listed next.
B1: library; numbered along this chain (parent)
chain: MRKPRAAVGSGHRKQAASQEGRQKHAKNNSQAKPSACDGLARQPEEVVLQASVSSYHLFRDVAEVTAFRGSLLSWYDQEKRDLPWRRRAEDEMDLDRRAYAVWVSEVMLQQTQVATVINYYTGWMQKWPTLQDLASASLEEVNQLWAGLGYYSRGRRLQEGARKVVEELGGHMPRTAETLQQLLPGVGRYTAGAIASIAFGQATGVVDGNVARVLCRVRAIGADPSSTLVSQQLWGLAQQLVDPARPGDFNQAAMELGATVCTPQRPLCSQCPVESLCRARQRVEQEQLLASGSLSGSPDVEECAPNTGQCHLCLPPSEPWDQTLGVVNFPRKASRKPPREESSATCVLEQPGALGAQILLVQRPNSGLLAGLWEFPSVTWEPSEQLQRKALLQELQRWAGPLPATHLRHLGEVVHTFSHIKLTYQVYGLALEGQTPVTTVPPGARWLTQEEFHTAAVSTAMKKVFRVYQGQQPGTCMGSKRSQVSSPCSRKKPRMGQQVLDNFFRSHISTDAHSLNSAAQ

Variants of: B1
Assay: 8OG:A repair function score (normalized; synonymous = 0, nonsense = -1) (normalized log-likelihood score); higher = more repair activity (WT-like);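 further: cells sorted at 72 h after reporter transfection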
Settings: with 8OG:A DNA repair reporter (GFP) in HEK-293 MUTYH KO cells
# print the numeric value only

>>> quantitative_result("R482G")
0.0105
>>> quantitative_result("Q286D")
-0.0961
>>> quantitative_result("S378T")
0.295

Prompt: Which 8OG:A repair function score value is on record for K492M ?
Completion: 0.015

Prompt: Continue with G170Y
Completion: -0.062

Prompt: Continue with W374Y
Completion: -0.274

Prompt: Continue with Q232P
Completion: -0.285

Prompt: Continue with M478G
Completion: 0.0207

Prompt: Continue with R86Q
Completion: -2.68

Prompt: Continue with D243I
Completion: -0.858

Prompt: Continue with D133I
Completion: -0.308
